- assay text: ATG_NFI_CIS: Attagene CIS-FACTORIAL HepG2 Assay for human Nuclear Factor I (NFI) (AID 2282989)
- measurement conditions: HepG2 cis-regulatory reporter, NFI response element transcription; actives raise or lower the signal
Calls of active or inactive are those of the source. The calls were made as follows: active = hit-call score of the fitted dose curve at least 0.9, where 1 is the maximum; inactive = score below 0.9.
Could you please pick one outcome from this set? active, inactive

Example entries and their recorded answers appear below.
CC[C@H](C)C(=O)O[C@H]1C[C@H](O)C=C2C=C[C@H](C)[C@H](CC[C@@H](O)C[C@@H](O)CC(=O)O)[C@H]21 :: inactive
OC(Cn1cncn1)(Cn1cncn1)c1ccc(F)cc1F :: inactive
CCc1ccc(O)c(C(C)(C)C)c1 :: inactive

Query: For this molecule, state the assay outcome: CC(=O)c1ccccc1
Result: inactive

Query: For this molecule, state the assay outcome: O=C(O)CO
Result: inactive

Query: For this molecule, state the assay outcome: C[C@@H](Oc1ccc(CNC(=O)c2cccnc2Oc2ccc3c(c2)OCO3)c(F)c1)C(=O)O
Result: inactive

Query: For this molecule, state the assay outcome: COCc1nnc(-c2ccc[n+]([O-])c2)n1-c1c(Cl)c(Cl)cc2[nH]c(=O)c(=O)[nH]c12
Result: inactive

Query: For this molecule, state the assay outcome: O=C(Cl)C(F)(F)C(F)(F)C(F)(F)C(=O)Cl
Result: inactive

Query: For this molecule, state the assay outcome: CCCCCCCCCCCCCCO
Result: active

Query: For this molecule, state the assay outcome: COS(C)(=O)=O
Result: inactive

Query: For this molecule, state the assay outcome: Cc1nccn1-c1ccc(Sc2cccc(C3(C(N)=O)CCOCC3)c2)cc1
Result: active

Query: For this molecule, state the assay outcome: CCCCC(CC)C(=O)OCCOCCOCCOC(=O)C(CC)CCCC (configuration not stated)
Result: inactive

====

- assay text: BSK_3C_Proliferation: Cell Proliferation Assessment in the BioMAP Diversity Plus: 3C Assay (AID 2283006)
- measurement conditions: primary human endothelial cells (HUVEC)
The source made the active and inactive calls. The calls were made as follows: active = hit-call score of the fitted dose curve at least 0.9, where 1 is the maximum; inactive = score below 0.9.
Could you please pick one outcome from this set? active, inactive

Example entries and their recorded answers appear below.
CCCCCCCC/C=C\CCCCCCCC(=O)OC[C@@H](O)[C@H]1OC[C@H](O)[C@H]1O :: inactive
Cc1cccc(O)c1C :: inactive
OCc1c[nH]c2ccccc12 :: active
COS(C)(=O)=O :: inactive
NC(=O)N(O)[C@@H]1COc2cc(OCc3ccccc3)ccc21 :: inactive

Query: For this compound, state the assay outcome: Cc1nc(-c2ccccn2)ncc1C(=O)Nn1cc(C)c2cc(F)ccc21
Result: inactive

Query: For this compound, state the assay outcome: NC(=O)NN=Cc1ccc([N+](=O)[O-])o1
Result: inactive

Query: For this compound, state the assay outcome: OC(Cn1cncn1)(Cn1cncn1)c1ccc(F)cc1F
Result: inactive

Query: For this compound, state the assay outcome: CCCc1ccccc1
Result: inactive

Query: For this compound, state the assay outcome: CC(C)CC(C)O (centres undefined)
Result: inactive

Query: For this compound, state the assay outcome: O=C(O)[C@H](O)[C@@H](O)C(=O)O
Result: inactive

====

- assay text: CCTE_Shafer_MEA_dev_active_electrodes_number: CCTE's Neural Network Formation Assay for Number of Active Electrodes, Shafer Lab (AID 2284040);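 as to AC50: potency for loss of active electrodes versus DMSO so lower counts are hits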
Inconclusive results are not listed. Activity calls are given as the source filed them. How the source made its calls: active means hit-call score of the fitted dose curve at least 0.9, where 1 is the maximum; inconclusive means response in the unintended direction; inactive means score below 0.9.
metric: AC50

Consider the worked cases shown below.
CCCC(CCC)C(=O)O :: inactive
O=C(Cl)C(F)(F)C(F)(F)C(F)(F)C(=O)Cl :: inactive
CC[C@H](C)C(=O)O[C@H]1C[C@H](O)C=C2C=C[C@H](C)[C@H](CC[C@@H](O)C[C@@H](O)CC(=O)O)[C@H]21 :: 2280 nM (active)
NCC(F)(F)C(F)(F)C(F)(F)C(F)(F)F :: inactive

Query: Give the value of AC50 reported for the following: C[C@]12C=CC(=O)C=C1CC[C@H]1[C@@H]3C[C@@H](O)[C@](O)(C(=O)CO)[C@@]3(C)C[C@H](O)[C@@]12F
Result: inactive

Query: Give the value of AC50 reported for the following: FC(F)(F)COC(OCC(F)(F)F)OCC(F)(F)F
Result: inactive

====

- Read-out: catalase (CAT), CAT (gene 847)
- assay text: LTEA_HepaRG_CAT: Life Technologies and Expression Analysis (LTEA) Assay for catalase (CAT) using HepaRG (AID 2283452)
- measurement conditions: mRNA level, 48 h; actives raise or lower the signal
Calls of active or inactive are those of the source. How the source made its calls: active means hit-call score of the fitted dose curve at least 0.9, where 1 is the maximum; inactive means score below 0.9.
Could you please pick one outcome from this set? yes = active, no = inactive

Example entries and their recorded answers appear below.
OCc1ccccc1 :: no
C[C@@H](Oc1ccc(CNC(=O)c2cccnc2Oc2ccc3c(c2)OCO3)c(F)c1)C(=O)O :: no
CCc1ccc(O)c(C(C)(C)C)c1 :: no
OCCNCCO :: yes
CCCc1ccccc1 :: no
Cn1c(=O)c2[nH]cnc2n(C)c1=O :: no
OCCOCCOCCO :: no
O=C1CN(N=Cc2ccc([N+](=O)[O-])o2)C(=O)N1 :: no

Query: For this compound, state the assay outcome: O=C(O)c1cccc(C[C@@H]2COc3ccc(OCc4nc5cc(F)ccc5s4)cc3[C@@H]2O)c1
Result: yes

====

- Read-out: Cyclin D2 (CCND2), CCND2 (gene 894)
- assay text: LTEA_HepaRG_CCND2: Life Technologies and Expression Analysis (LTEA) Assay for Cyclin D2 (CCND2) using HepaRG (AID 2283449);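 also: CCND2 transcript measured by TaqMan qRT-PCR and normalised to three housekeeping genes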
- measurement conditions: mRNA level, 48 h; actives raise or lower the signal
- Description: LTEA_HepaRG is a cell based, multiplexed-readout assay that uses HepaRG, a human liver cell line, with measurements taken at 48 hours after chemical dosing on a 96-well plate.LTEA_HepaRG_CCND2 is one of 102 assay component(s) measured in the LTEA HepaRG cell culture assay. It is a marker of Cell proliferation, survival, death.Data from the assay component LTEA_HepaRG_CCND2 was analyzed into 1 endpoint. […]
Calls of active or inactive are those of the source. How the source made its calls: active means hit-call score of the fitted dose curve at least 0.9, where 1 is the maximum; inactive means score below 0.9.
Could you please pick one outcome from this set? active, inactive

CCN(CC)C(=S)SSC(=S)N(CC)CC :: inactive
Cc1ccc(S(=O)(=O)NC(=O)NN2CCCCCC2)cc1 :: inactive
CC(=O)c1ccccc1 :: inactive
CCCOc1ccc(S(=O)(=O)N2CCN(CC)CC2)cc1-c1nc2c(CC)n(Cc3ccccn3)nc2c(=O)[nH]1 :: inactive
NC(=O)NN=Cc1ccc([N+](=O)[O-])o1 :: active

Query: For this molecule, state the assay outcome: CC(C)CCCCCCOC(=O)C1CCCCC1C(=O)OCCCCCCC(C)C (configuration not stated)
Result: inactive

Query: For this molecule, state the assay outcome: Cc1nccn1-c1ccc(Sc2cccc(C3(C(N)=O)CCOCC3)c2)cc1
Result: inactive

Query: For this molecule, state the assay outcome: OCc1ccccc1
Result: inactive

Query: For this molecule, state the assay outcome: c1ccc2cc3ccccc3cc2c1
Result: inactive

Query: For this molecule, state the assay outcome: C=CN1CCCC1=O
Result: inactive

Query: For this molecule, state the assay outcome: OC[C@H]1O[C@@H]2O[C@H]3[C@H](O)[C@@H](O)[C@@H](O[C@H]4[C@H](O)[C@@H](O)[C@@H](O[C@H]5[C@H](O)[C@@H](O)[C@@H](O[C@H]6[C@H](O)[C@@H](O)[C@@H](O[C@H]7[C@H](O)[C@@H](O)[C@@H](O[C@H]1[C@H](O)[C@H]2O)O[C@@H]7CO)O[C@@H]6CO)O[C@@H]5CO)O[C@@H]4CO)O[C@@H]3CO
Result: inactive

Query: For this molecule, state the assay outcome: O=C(O)[C@H](O)[C@@H](O)C(=O)O
Result: inactive

====

- assay text: APR_HepG2_MitoticArrest_72hr: Apredica 72-hour HepG2 Assay for Mitotic Arrest (AID 2282918)
- measurement conditions: high-content imaging, actives raise or lower the signal
Active and inactive are the calls of the source. How the source made its calls: active means hit-call score of the fitted dose curve at least 0.9, where 1 is the maximum; inactive means score below 0.9.
Could you please pick one outcome from this set? active, inactive

Example entries and their recorded answers appear below.
c1ccc2c(c1)-c1cccc3c1c-2cc1ccccc13 :: inactive
OC[C@H]1O[C@@H]2O[C@H]3[C@H](O)[C@@H](O)[C@@H](O[C@H]4[C@H](O)[C@@H](O)[C@@H](O[C@H]5[C@H](O)[C@@H](O)[C@@H](O[C@H]6[C@H](O)[C@@H](O)[C@@H](O[C@H]7[C@H](O)[C@@H](O)[C@@H](O[C@H]1[C@H](O)[C@H]2O)O[C@@H]7CO)O[C@@H]6CO)O[C@@H]5CO)O[C@@H]4CO)O[C@@H]3CO :: inactive
CCCCCCCCCCCCCCO :: active
C=CN1CCCC1=O :: inactive
OCc1ccccc1 :: inactive

Query: For this molecule, state the assay outcome: CCCOc1ccc(S(=O)(=O)N2CCN(CC)CC2)cc1-c1nc2c(CC)n(Cc3ccccn3)nc2c(=O)[nH]1
Result: active

Query: For this molecule, state the assay outcome: O=C(O)c1ccc2c(c1)nc(C(=O)NC1CCN(C3CC3)CC1)n2Cc1cc(-c2ccc(Cl)s2)on1
Result: inactive

Query: For this molecule, state the assay outcome: CCc1cccc(CC)c1N
Result: inactive

Query: For this molecule, state the assay outcome: Cc1ccc(S(=O)(=O)NC(=O)NN2CCCCCC2)cc1
Result: inactive

Query: For this molecule, state the assay outcome: Cn1cc[nH]c1=S
Result: inactive

Query: For this molecule, state the assay outcome: C[C@@H](Oc1ccc(CNC(=O)c2cccnc2Oc2ccc3c(c2)OCO3)c(F)c1)C(=O)O
Result: inactive

Origin of the recorded values: PubChem BioAssay (EPA / NIEHS)
